assayed-target: Rac GTPase-activating protein 1 (Homo sapiens, UniProt Q9H0H5)
Sequence (Q9H0H5 whole entry): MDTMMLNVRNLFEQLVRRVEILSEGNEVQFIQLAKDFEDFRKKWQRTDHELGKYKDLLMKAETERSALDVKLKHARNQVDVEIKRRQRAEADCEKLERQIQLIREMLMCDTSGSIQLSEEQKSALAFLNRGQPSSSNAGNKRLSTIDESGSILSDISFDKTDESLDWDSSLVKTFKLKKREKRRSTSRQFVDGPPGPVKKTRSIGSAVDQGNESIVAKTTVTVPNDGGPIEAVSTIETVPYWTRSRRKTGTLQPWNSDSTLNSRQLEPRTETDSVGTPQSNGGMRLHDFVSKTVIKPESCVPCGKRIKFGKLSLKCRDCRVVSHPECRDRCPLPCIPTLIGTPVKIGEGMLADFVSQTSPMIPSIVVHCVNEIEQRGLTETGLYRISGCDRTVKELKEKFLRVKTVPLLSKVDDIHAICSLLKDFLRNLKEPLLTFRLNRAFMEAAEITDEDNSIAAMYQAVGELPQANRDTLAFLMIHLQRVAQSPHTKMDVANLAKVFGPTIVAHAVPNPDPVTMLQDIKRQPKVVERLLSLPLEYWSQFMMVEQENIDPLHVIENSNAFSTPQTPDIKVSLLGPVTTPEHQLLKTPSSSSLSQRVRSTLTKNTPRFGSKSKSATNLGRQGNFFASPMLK
test-summary: blockers of MgcRacGAP-driven Rac1 GTP hydrolysis – biochemical, ADP Hunter fluorescence, primary and confirmatory, confirmation (AID 624330)
Assay type: functional
Active and inactive are the calls of the source. The rule behind the calls is not given here.
experimental-endpoint: IC50

>>> experimental_result("COc1cc(/C=C/c2sc3ccccc3[n+]2CCCS(=O)(=O)[O-])ccc1O")
"20.5 µM (active)"
>>> experimental_result("Cc1cccc(-n2c(=O)c3ccccc3n3c(S)nnc23)c1C")
"40.7 µM (active)"
>>> experimental_result("Cc1cc(O)nc2c(N=Nc3ccc(O)cc3)c(N)nn12")
"12.1 µM (active)"
>>> experimental_result("COc1cccc(CNc2ccc(N3CCC(C)CC3)cc2)c1OC")
"7.86 µM (active)"
>>> experimental_result("COc1cc(-c2cc(OC)c(O)c(OC)c2)cc(OC)c1O")
"88.4 µM (active)"

Look up IC50 for the entries below, preserving their order.
1. CCn1c(=O)c(C(=O)CN(C)Cc2cccc(OC)c2OC)c(N)n(Cc2ccccc2)c1=O
2. CC(=O)N1CCN(c2ccc(NCc3ccccc3)cc2)CC1
3. COc1cc(/C=C/C(=O)OCc2cn3cc(Cl)ccc3n2)ccc1O
4. COc1ccc(NC(S)=NCC2CCN(c3ccc(OC)cc3)C2)cc1 (stereo unspecified)

RESULT:
1. 83.9 µM (active)
2. 10.5 µM (active)
3. 45.5 µM (active)
4. 39.4 µM (active)

Look up IC50 for the entries below, preserving their order.
1. COc1cc(/C=C/C(=O)OCC(=O)Nc2ccc3c(c2)OCCO3)ccc1O
2. O=C(CN1CCCCC1)Nc1ccc(N2CCCCCC2)cc1
3. CCOc1cc(/C=C(\C#N)C(=O)NCC2CCCO2)ccc1O (stereo unspecified)
4. COc1ccccc1CNCC(=O)N1CC(=O)Nc2ccccc21
5. CC(=O)Nc1ccc(OC(=O)Cc2ccc(Cl)cc2)cc1
6. CC(C)n1cc(/C=N/Nc2ccc(Cl)c(C(=O)O)c2)c2ccccc21
7. COc1cc(/C=N/NC(=O)c2nonc2C)ccc1O

RESULT:
["39.8 µM (active)", "126 µM (active)", "41.5 µM (active)", "143 µM (active)", "23.4 µM (active)", "102 µM (active)", "28.8 µM (active)"]
